test: small-molecule microarray binders of probe aDKK1, primary screen, biochemical, biotinylated probe, 635/667 nm fluorescence (AID 1099); settings: higher = more signal;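 further: score merges 667nm spot fluorescence with signal to noise across triplicate slides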
A collection of compounds and their measured composite z-score
Enter a number only.

Worked set:
- C#CCCCON=C1C[C@@H](O)[C@@H](O)[C@@H]2[C@@H]3C(=O)N(c4ccc(F)cc4F)C(=O)[C@@H]3CC[C@H]12: -0.177
- CCOC(=O)[C@H](Cc1ccccc1)NC(=O)CCC1CC(OC(=O)NCCc2ccc(F)cc2)CC2(CCCC(COC(=O)NCCc3ccc(Cl)cc3)O2)O1 (stereo partly drawn): -0.0724

Q. Can you share its composite z-score? I mean this compound: CC1O[C@H]2C3=C(C(=O)[C@@H]4O[C@@H]4[C@H]3O)[C@@H]1C1[C@@H](C)OC=C3[C@H](O)C4O[C@@H]4C(=NOCc4ccccc4)[C@]312 (stereo partly drawn)
A. -0.129

###

molecular target: NADPH oxidase 4 (Homo sapiens) (UniProt Q9NPH5); assay: NOX4-dependent H2O2 signal modulators, primary screen, NOX inhibitor project, cell-based, HEK293-NOX4, tetracycline-induced, Amplex Red fluorescence (AID 1160); details: 45 min, higher = more signal, called active from +8 up or from −8 down
Sequence (Q9NPH5 whole entry, looked up): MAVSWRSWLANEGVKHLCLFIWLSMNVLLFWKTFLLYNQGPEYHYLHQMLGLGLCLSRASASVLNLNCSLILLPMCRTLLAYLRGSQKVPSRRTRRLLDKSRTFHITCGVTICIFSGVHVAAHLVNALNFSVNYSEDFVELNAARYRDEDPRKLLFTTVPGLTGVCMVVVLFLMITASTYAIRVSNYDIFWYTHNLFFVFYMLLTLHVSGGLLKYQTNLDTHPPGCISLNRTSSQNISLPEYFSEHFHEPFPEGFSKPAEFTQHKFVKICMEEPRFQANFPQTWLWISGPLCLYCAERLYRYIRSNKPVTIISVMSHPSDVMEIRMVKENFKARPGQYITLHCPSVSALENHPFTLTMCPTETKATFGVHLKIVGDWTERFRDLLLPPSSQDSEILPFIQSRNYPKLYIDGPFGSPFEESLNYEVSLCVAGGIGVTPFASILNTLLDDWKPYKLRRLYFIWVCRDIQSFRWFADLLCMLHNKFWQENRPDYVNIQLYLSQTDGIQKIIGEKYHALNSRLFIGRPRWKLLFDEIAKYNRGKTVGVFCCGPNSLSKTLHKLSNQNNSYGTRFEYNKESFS
Would you please tag the item Yes when its z-score is 0.5 or above, and No when it is below?

These recorded examples may help you get a feel for the data.
• CC(C)C[C@H](NC(=O)CCC1CC(OC(=O)NCc2cccc3ccccc23)CC2(CCCC(COC(=O)NCc3ccccc3)O2)O1)C(=O)NCC(c1ccccc1)c1ccccc1 (some centres undefined) = No
• CC[C@@H](c1ccccc1)n1c(=O)n2n(c1=O)[C@H]1[C@H](O)[C@@H]3O[C@@H]3C(=O)[C@H]1CC2 = No
• COc1ccc(O[C@H]2C=C[C@@H](c3ccccc3)O[C@@H]2CON=C(C)CCC(=O)OC[C@H]2O[C@H](c3ccccc3)C=C[C@@H]2Oc2ccc(OC)cc2)cc1 = Yes
• COCCNC(=O)OCC1CCCC2(CC(OC(=O)NCc3ccc4c(c3)OCO4)CC(CCC(=O)N[C@@H](C)C(=O)OC)O2)O1 (some centres undefined) = Yes
• C[C@H]1CC[C@H]2C(=O)O[C@H](COc3ccc(C(C)(C)C)cc3)CN2[C@@H]1c1ccc(Br)cc1 = Yes
• CCOC(=O)NN=C1C[C@@H](O)[C@@H](O)[C@@H]2[C@@H]3C(=O)N(C(C)(C)C)C(=O)[C@@H]3CC[C@H]12 = Yes
• CC(C)CCN1CCc2nc(COc3ccccc3)c3c(c2C1)CO[C@@H](C)C3 = No
• C#CCCCON=C1C[C@@H](O)[C@@H](O)[C@@H]2[C@@H]3C(=O)N(C(C)(C)C)C(=O)[C@@H]3CC[C@H]12 = No

Q. In plain terms: is recorded z-score at least 0.5 for CCOC(=O)[C@H](Cc1ccccc1)NC(=O)CCC1CC(OC(=O)NCCc2ccc(F)cc2)CC2(CCCC(COC(=O)NCCc3ccccc3OC)O2)O1 (some centres undefined) ?
A. No

Q. Item: C=CC[C@@H]1C=C[C@H](ON=C(C)CCC(=O)OC[C@H]2O[C@H](C#Cc3ccccc3)C=C[C@@H]2Oc2ccc(C)cc2)[C@@H](CO)O1
A. No

Q. Item: CC(CCN1CCCc2nc(C)c(C)cc21)=NOC(C)CN1CCCCc2nc(C)c(C)cc21 (centres undefined)
A. No

Q. Item: O=C(NN=C1C[C@@H](O)[C@@H](O)[C@@H]2[C@@H]3C(=O)N(C[C@@H]4CCCO4)C(=O)[C@@H]3CC[C@@H]12)OCc1ccccc1
A. Yes

Q. Item: C=C(C)C(=O)OCC1CN2[C@@H](CC[C@@H](C)[C@@H]2c2ccc(Br)cc2)C(=O)O1 (some centres undefined)
A. No

###

target: Albumin (Bos taurus); experiment: bovine serum albumin binders on microarray, profiling panel, artefact control for SMM control protein annotation, biochemical, small-molecule microarray, Alexa647 label, 635/667 nm fluorescence (AID 1118); conditions: BSA-A647 binding, fluorescence 635 nm, higher = more signal;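 further: score merges 667 nm emission intensity and signal-to-noise per printed compound spot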
Categories are defined by ranges of composite z-score, namely low value (below -0.1), medium value (-0.1 to below 0.3), high value (0.3 or more)

• COC(=O)[C@@H]1CC[C@H](C)[C@@H](c2ccc(C)cc2)N1C(=O)c1ccc(C=NO[C@@H]2O[C@H](COC(C)=O)[C@@H](OC(C)=O)[C@H](OC(C)=O)[C@H]2OC(C)=O)cc1 = high value

Q. # bin label for C=C(C)C(=O)OCC1CN2[C@@H](CC[C@@H](C)[C@@H]2c2ccc(Br)cc2)C(=O)O1 (stereo not given in full)
A. medium value

Q. Item: C[C@H](ON=C1[C@H]2CCn3c(=O)n(-c4ccccc4)c(=O)n3[C@H]2[C@H](O)[C@@H]2O[C@H]12)c1cn([C@H](CO)Cc2ccccc2)nn1
A. high value

Q. Item: C#CCCCON=C1C[C@@H](O)[C@@H](O)[C@@H]2[C@@H]3C(=O)N(c4ccc(F)cc4F)C(=O)[C@@H]3CC[C@H]12
A. high value

Q. Item: CO[C@@H]1COC(=O)[C@H](CCSC)NC(=O)CC=C[C@@H](C)COC(=O)[C@H](C)NC(=O)CC=C[C@H]1C
A. low value

Q. Item: O=C1CCCC=C1C(CCc1ccccc1)OC(=O)c1ccc(Br)cc1 (stereo not given)
A. low value

Q. Item: C#CCCCON=C1C[C@@H](O)[C@@H](O)[C@@H]2[C@@H]3C(=O)N(C(C)(C)C)C(=O)[C@@H]3CC[C@H]12
A. high value

Q. Item: CC(C)=CCCC(C)=CCON=C1C[C@@H](O)[C@@H](O)[C@@H]2[C@@H]3C(=O)N(C(C)(C)C)C(=O)[C@@H]3CC[C@H]12
A. medium value

Q. Item: COc1ccc(O[C@H]2C=C[C@@H](c3ccccc3)O[C@@H]2COC(=O)CCC(C)=NOC[C@@H](O)[C@H]2O[C@@H]3OC(C)(C)O[C@@H]3[C@H]2O)cc1
A. medium value

Q. Item: CC(C)=CCCC(C)=CCON=C1C[C@@H](O)[C@@H](O)[C@@H]2[C@@H]3C(=O)N(C(C)(C)C)C(=O)[C@@H]3CC[C@@H]12
A. medium value

Q. Item: CC(C)CON=C1C[C@@H](O)[C@@H](O)[C@@H]2[C@@H]3C(=O)N(c4cccc(Oc5ccccc5)c4)C(=O)[C@@H]3CC[C@@H]12
A. high value

Q. Item: COC(=O)CC=C[C@@H](C)[C@@H](C=NOCC[C@@H]1C=C[C@H](OC(C)=O)[C@@H](COC(C)=O)O1)NS(=O)(=O)c1ccc(C)cc1
A. low value

Q. Item: Cc1cc2c(nc1C)CCCCN2CC(C)ON=C[C@@H](C)[C@H](OCc1ccccc1)C(C)C (stereo not given in full)
A. low value

###

biological target: Pro-neuregulin-1, membrane-bound isoform (Homo sapiens); assay: NRG1 binders on small-molecule microarrays, primary screen, psychiatric disease protein project, biochemical, small-molecule microarray, fluorescence 635/667 (AID 1075); details: NRG1 binding, 635 nm fluorescence, higher = more signal;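 further: score combines 667 nm spot fluorescence with signal to noise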
readout-type: composite z-score
Enter a number only.

Worked set:
* CCCNC(=O)OC[C@H]1O[C@H](CCON=C(C)C)C=C[C@@H]1Oc1ccc(OC)cc1 | 0.0871
* CCC=CCCC(OC(=O)c1ccc(Br)cc1)C1=CCCCC1=O (centres undefined) | 0.714
* C#CCCCON=C1[C@H]2CCn3c(=O)n(-c4ccccc4)c(=O)n3[C@H]2[C@H](O)[C@@H]2O[C@H]12 | -0.0335
* COc1ccc(O[C@H]2C=C[C@@H](c3ccccc3)O[C@@H]2CON=C(C)C)cc1 | 0.112

Q. Test system Pro-neuregulin-1, membrane-bound isoform (Homo sapiens); read-out composite z-score; what value for COc1ccc(O[C@@H]2[C@H](O)CO[C@H]2C=Cc2ccccc2)cc1 ?
A. 0.0515

Q. Item: COC(=O)[C@H](C)NC(=O)CCC1CC(OC(=O)NCc2ccc3c(c2)OCO3)CC2(CCCC(COC(=O)NCC3CCCCC3)O2)O1 (some centres undefined)
A. 0.586

Q. Item: Cc1cc2c(nc1C)CCCCN2CC(C)ON=C[C@@H](C)[C@H](OCc1ccccc1)C(C)C (some centres undefined)
A. -0.317

Q. Item: O=C1C[C@@H](O)[C@@H](O)[C@@H]2[C@@H]3C(=O)N(C[C@@H]4CCCO4)C(=O)[C@@H]3CC[C@@H]12
A. 0.123

Q. Item: COC(=O)[C@@H]1CC[C@H](C)[C@@H](c2ccc(C)cc2)N1C(=O)c1ccc(C=NOC[C@@H](C)[C@H](OCc2ccccc2)C(C)C)cc1
A. 0.855

###

system: glycogen synthase kinase-3 (GSK3A per assay name; protocol says GSK3B); experiment: GSK3 binders on small-molecule microarrays, primary screen, biochemical, small-molecule microarray, 635 nm fluorescence, GSK3A (AID 1103); conditions: small-molecule microarray binding, fluorescence 635 nm; higher = more signal; further: the record names both GSK3A and GSK3B
A collection of compounds and their measured composite z-score
Enter a number only.

Worked set:
- CCc1cc2c(nc1CC)CCN(CCC(C)=NO[C@H](C)c1cn([C@H](CO)Cc3ccccc3)nn1)C2: 0.0291
- CC(C)=CCCC(C)=CCON=C1C[C@@H](O)[C@@H](O)[C@@H]2[C@@H]3C(=O)N(c4ccc(F)cc4F)C(=O)[C@@H]3CC[C@@H]12: -0.0599
- O=c1n(-c2ccccc2)c(=O)n2n1CC[C@@H]1C(=NOCc3ccccc3)[C@H]3O[C@H]3[C@@H](O)[C@@H]12: -0.864
- COC(=O)[C@@H]1CC[C@H](C)[C@@H](c2ccc(C)cc2)N1C(=O)c1ccc(C=NO[C@H](C)c2cn([C@@H]3COC[C@H]3O)nn2)cc1: 0.891
- CC(CCN1CCCCc2nc(C)c(C)cc21)=NO[C@H](C)c1cn([C@H](CO)Cc2ccccc2)nn1: -0.393
- CO[C@@H]1COC(=O)CC=C[C@H](C)[C@H](OC)COC(=O)[C@H](C)NC(=O)CC=C[C@H]1C: 0.918
- CC(CCN1CCCCc2nc(C)c(C)cc21)=NOC[C@@H](O)COCc1ccco1: 1.34
- CCOC(=O)[C@H](CC(C)C)NC(=O)CCC1CC(OC(=O)NCc2ccc3c(c2)OCO3)CC2(CCCC(COC(=O)NCc3cccc(C(F)(F)F)c3)O2)O1 (some centres undefined): -0.319
- C=CC[C@@H]1C=C[C@H](ON=C(C)CCC(=O)OC[C@H]2O[C@H](c3ccccc3)C=C[C@@H]2Oc2ccc(OC)cc2)[C@@H](CO)O1: -0.855
- CC(C)(C)N1C(=O)[C@H]2[C@H]3[C@H](O)[C@H](O)CC(=NOCc4ccccc4)[C@H]3CC[C@H]2C1=O: -0.399

Q. Test system glycogen synthase kinase-3 (GSK3A per assay name; protocol says GSK3B); read-out composite z-score; what value for C#CCCCON=C1[C@H]2CCn3c(=O)n(-c4ccccc4)c(=O)n3[C@H]2[C@H](O)[C@@H]2O[C@H]12 ?
A. 0.621

Q. Item: CO[C@@H]1COC(=O)CC=C[C@@H](C)[C@@H]2C=C[C@H](O)[C@@H](COC(=O)CC=C[C@H]1C)O2
A. 1.02
